FYI, the data here is from PubChem BioAssay (NCI).

- Test system: IGROV1 ovarian
- ASSAY_PROTOCOL: NCI tumour cell line growth inhibition, 48 h
READOUT_TYPE: GI50

[[record]]
molecule = "COc1ccc2c(c1)OC(N)=C(C#N)C2c1ccc(F)c(F)c1 (stereo unspecified)"
readout_type = "GI50"
endpoint_value = "0.715 µM"

[[record]]
molecule = "Cc1cccc2c1NC(=O)[C@@H](NC(=O)[C@H](CCC(F)(F)F)[C@H](CCC(F)(F)F)C(N)=O)N=C2c1cccc(F)c1"
readout_type = "GI50"
endpoint_value = "27.7 µM"

[[record]]
molecule = "O=C(NCCNc1nccc(-c2c(-c3ccc(F)cc3)nc3sccn23)n1)Nc1cccc(C(F)(F)F)c1"
readout_type = "GI50"
endpoint_value = "4.59 µM"

[[record]]
molecule = "O=C(NC(=S)Nc1ccc(-c2nc3ccccc3[nH]2)cc1)c1ccc2ccccc2c1"
readout_type = "GI50"
endpoint_value = "7.66 µM"

[[record]]
molecule = "N#C/C(=C\\c1ccc([N+](=O)[O-])cc1)n1nnc2cc(F)c(F)cc21"
readout_type = "GI50"
endpoint_value = "1.72 µM"


Now for a further molecule.
Input line: Look up and report measured GI50 for this entry: `CSc1nc(SC)c2cnn(-c3ccnc4cc(Cl)ccc34)c2n1`
Output line: 47.8 µM

====

- System: NCI-H522 lung
- ASSAY_PROTOCOL: NCI tumour cell line growth inhibition, 48 h; in the data active means GI50 below about 0.43 µM; inactive means the rest
The categories you may choose from are active, inactive

Example entries and their recorded answers appear below.
[[record]]
molecular_string = "ClCCN(CCCl)c1ccc(OCc2ccccc2)cc1"
class = "inactive"

[[record]]
molecular_string = "COc1c(O)cc2c(c1CC=C(C)C)OC(=O)c1c(cc(O)c(CC=C(C)C)c1O)O2"
class = "inactive"

[[record]]
molecular_string = "COc1ccc(/C=C/C(=O)c2ccc(B(O)O)cc2)cc1O"
class = "inactive"

[[record]]
molecular_string = "O=C(O)c1ccc(NCn2nc(-c3ccccc3O)oc2=S)cc1O"
class = "inactive"


Input line: Could you check what this test reported for `NNC(=S)N/N=C/c1ccccn1` ?
Output line: active

====

- System: NCI-H460 lung
- ASSAY_PROTOCOL: NCI tumour cell line growth inhibition, 48 h
Parameter: TGI. Scope: all listed entries.

Some solved entries appear below for comparison.
[[record]]
molecular_string = "CC(C)[C@]12O[C@H]1[C@@H]1O[C@]13[C@]1(O[C@H]1C[C@H]1C4=C(CC[C@@]13C)C(=O)OC4)[C@@H]2OC(=O)OC(C)(C)C"
endpoint_value = "> 33.6 µM"

[[record]]
molecular_string = "CCOC(=O)Nc1ccc2c3c(cccc13)-c1ccccc1-2"
endpoint_value = "> 100 µM"

[[record]]
molecular_string = "Cc1cc2c(=O)cc(-c3ccc(Cl)cc3Cl)oc2c(C(=O)O)c1C"
endpoint_value = "> 100 µM"

[[record]]
molecular_string = "COc1cc2c3c(n(CCCNC(C)(C)CO)c(=O)c2cc1OC)-c1cc2c(cc1C3=O)OCO2"
endpoint_value = "> 69.2 µM"

[[record]]
molecular_string = "COc1ccc(-c2nc(Nc3ccc(F)cc3)nc(Nc3ccc4c(c3)nc(C)n4Cc3ccccc3)n2)cc1"
endpoint_value = "20.9 µM"


Now for a further molecule.
Input line: Look up and report measured TGI for this entry: `O=[N+]([O-])c1cccc(C=NC23CC4CC(CC(C4)C2)C3)c1`
Output line: > 100 µM
